Attribution: patent US20100047245A1

// kon lookup, one value per entry
- Measured target: recombinant purified human IL-12 p70 (human) (UniProt P29459)
- Sequence (chain, as listed by the source, form in doubt, chain 1 of 2): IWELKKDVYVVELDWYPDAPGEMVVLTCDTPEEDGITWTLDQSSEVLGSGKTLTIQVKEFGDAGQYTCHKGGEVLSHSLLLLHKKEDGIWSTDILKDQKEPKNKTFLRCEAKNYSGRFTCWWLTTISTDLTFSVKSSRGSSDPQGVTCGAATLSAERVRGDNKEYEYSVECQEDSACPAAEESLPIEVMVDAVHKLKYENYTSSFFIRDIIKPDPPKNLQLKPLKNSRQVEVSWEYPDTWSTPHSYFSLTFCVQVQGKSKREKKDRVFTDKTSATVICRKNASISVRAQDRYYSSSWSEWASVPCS
- Sequence (P29459 23-219, form in doubt, chain 2 of 2): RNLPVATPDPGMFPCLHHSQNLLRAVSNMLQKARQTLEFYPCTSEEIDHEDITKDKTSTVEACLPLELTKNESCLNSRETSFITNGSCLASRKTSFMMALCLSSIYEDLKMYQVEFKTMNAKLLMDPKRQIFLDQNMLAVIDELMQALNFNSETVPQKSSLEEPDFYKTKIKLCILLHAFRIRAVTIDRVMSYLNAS
- Protocol: SPR (BIAcore) per Example 1.1.B; antigen not restated, taken as human IL-12 p70

Binder	kon
1A6.3 (antibody, human IgG1, V domains shown) VH: EVTLKESGPVLVKPTETLTLTCTVSGFSLSTSGMGVSWIRQPPGKALEWLAHIWWDGDNYYNPSLKSRLTISKDTSKSQVVLTMTNMDPVDTATYYCARRTRVNYAMDYWGQGTTVTVSS VL: SVVMTQTPKFLLVSAGDRVTITCKASQSVSNDVAWFQQKPGQSPKLLIYYASNRYTGVPDRFTGSGYGTDFTFTISTVQAEDLAVYFCQQDYNSPWTFGGGTKLEIKR	190000 M⁻¹ s⁻¹
1A6.4 (antibody, human IgG1, V domains shown) VH: QVTLKESGPGILKPSQTLSLTCSFSGFSLSTSGMGVSWIRQPSGKGLEWLAHIWWDGDNYYNPSLKSQLTISKDTSRNQVFLRIATVDTADTATYYCARRTRVNYAMDYWGQGTSVTVSS VL: EIVMTQSPATLSVSPGERATLSCKASQSVSNDVAWYQQKPGQAPRLLIYYASNRYTGIPARFSGSGSGTEFTLTISSLQSEDFAVYYCQQDYNSPWTFGGGTKVEIKR	110000 M⁻¹ s⁻¹
1D4.4 (antibody, human IgG1, V domains shown) VH: EVTLRESGPALVKPTQTLTLTCTFSGFSLSKSVMGVSWIRQPPGKALEWLAHIYWDDDKYYNPSLKSRLTISKDTSKNQVVLTMTNMDPVDTATYYCARRGIRSAMDYWGQGTTVTVSS VL: SVVMTQTPKFLLVSAGDRVTITCKASQSVSNDVAWYQQKPGQSPKLLIYYASNRYTGVPDRFTGSGYGTDFTFIISTVRAEDLAVYFCQQDYNSPWTFGGGTKLEIKR	280000 M⁻¹ s⁻¹
1D4.5 (antibody, human IgG1, V domains shown) VH: QVTLKESGPGILQPSQTLSLTCSFSGFSLRKSVMGVSWIRQPSGKGLEWLAHIYWDDDKYYNPSLKSRLTISKDPSRNQVFLKITSVDTADAATYYCTRRGIRSAMDYWGQGTSVTVSS VL: DIVMTQSPDSLAVSLGERATINCKASQSVSNDVAWYQQKPGQPPKLLIYYASNRYTGVPDRFSGSGSGTDFTLTISSLQAEDVAVYYCQQDYNSPWTFGGGTKVEIKR	300000 M⁻¹ s⁻¹
